# Target: LC3C (human, UniProt Q9BXW4 1-126)
# Sequence (Q9BXW4 1-126, form in doubt): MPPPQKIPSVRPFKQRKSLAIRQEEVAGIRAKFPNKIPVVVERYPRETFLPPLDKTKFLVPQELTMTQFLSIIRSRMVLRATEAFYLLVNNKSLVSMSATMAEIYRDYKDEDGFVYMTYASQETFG
# Protocol Text: ITC
Result Type: Kd (µM)
# output: bare number, implied unit µM

Please give the measured Kd for this binder: PEDDWTEFSSEEIREARQAAASHAPS [AnkG LIR (AnkG WT peptide, rat 480 kD AnkG residues 1985-2010)] 2.93

Provenance of the data: patent US20210169980A1
